Target: FLAG-ZNF224 (UniProt Q9NZL3 1-707)
Sequence (Q9NZL3 whole entry): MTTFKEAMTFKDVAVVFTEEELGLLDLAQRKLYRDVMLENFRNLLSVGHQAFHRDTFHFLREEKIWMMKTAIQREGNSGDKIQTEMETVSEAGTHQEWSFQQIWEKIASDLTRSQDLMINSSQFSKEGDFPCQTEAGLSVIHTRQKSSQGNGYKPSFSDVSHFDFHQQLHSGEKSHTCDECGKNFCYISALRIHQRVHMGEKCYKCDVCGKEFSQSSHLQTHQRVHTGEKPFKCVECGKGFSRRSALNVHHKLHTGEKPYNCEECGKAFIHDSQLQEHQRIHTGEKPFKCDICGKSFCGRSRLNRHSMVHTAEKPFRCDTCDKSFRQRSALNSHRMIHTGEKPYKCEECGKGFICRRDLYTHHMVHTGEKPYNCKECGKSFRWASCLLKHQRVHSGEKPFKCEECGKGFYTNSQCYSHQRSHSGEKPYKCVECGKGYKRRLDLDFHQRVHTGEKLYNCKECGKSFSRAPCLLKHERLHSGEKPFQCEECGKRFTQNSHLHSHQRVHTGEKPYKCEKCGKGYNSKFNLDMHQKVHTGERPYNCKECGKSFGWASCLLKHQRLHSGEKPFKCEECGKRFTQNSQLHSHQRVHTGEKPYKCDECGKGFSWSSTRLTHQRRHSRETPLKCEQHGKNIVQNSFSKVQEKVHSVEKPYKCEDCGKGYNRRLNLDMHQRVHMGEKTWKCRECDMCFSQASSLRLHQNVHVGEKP
Experiment: SPR; protein immobilized, oligo as analyte; SPR: 1x PBS, Reichert SR7500DC, CMDH chip, oligo 0-10 uM; pH and temperature not stated; ELISA buffer not in material
Conditions: protein: recombinant; tags: 3xFLAG; label: 5'-biotin (ELISA oligos); hairpin
For each record, write down the corresponding Kd.
One number for each entry, in nM.

Below are 3 binders. Give each one its Kd.
1. GCAGCAA hairpin oligo (dsDNA) DNA 1: CCAAGCAGCAAAAAGGGAAAAACCCTTTTTGCTGCTTGG DNA 2: CCAAGCAGCAAAAAGGGTTTTTCCCTTTTTGCTGCTTGG
2. CAGCGTC hairpin oligo (dsDNA) DNA 1: CCAAGACGCTGAAAGGGAAAAACCCTTTCAGCGTCTTGG DNA 2: CCAAGACGCTGAAAGGGTTTTTCCCTTTCAGCGTCTTGG
3. CAGCTTC hairpin oligo (dsDNA) DNA 1: CCAAGAAGCTGAAAGGGAAAAACCCTTTCAGCTTCTTGG DNA 2: CCAAGAAGCTGAAAGGGTTTTTCCCTTTCAGCTTCTTGG

420
2000
1250
